Values were extracted from patent US20250019374A1.

TESTED_SYSTEM: His tagged PTPN2 (TC45) protein (Homo sapiens (Human))
PROTOCOL_DETAILS: PTPN2 Mobility Shift Assay (MSA)
Type: biochemical
PROTOCOL_CONDITIONS: enzyme 0.5 nM, substrate 2 μM
pIC50: −log10 of the molar value.
For each entry below, report its pIC50 value.

Data request: # input compound: CCC(CC)CNC[C@H]1Cc2c(cc(O)c(N3CC(=O)NS3(=O)=O)c2F)N1 [Compound 134] ; wanted: its pIC50
Data returned: 7.00 to 8.00

Data request: And O=C1CN(c2c(O)cc3c(c2F)C[C@H](CNCCC(F)F)N3)S(=O)(=O)N1 [Compound 140] ?
Data returned: 7.00 to 8.00

Data request: And CC(C)CNC[C@@H]1Cc2c(cc(O)c(N3CC(=O)NS3(=O)=O)c2F)O1 [Compound 101] ?
Data returned: < 7.00

Data request: And O=C1CN(c2c(O)cc3c(c2F)C[C@H](CNCC(O)C(F)F)N3)S(=O)(=O)N1 (stereo partly drawn) [Compound 157] ?
Data returned: < 7.00

Data request: And CC1=C(CCNC[C@H]2Cc3c(cc(O)c(N4CC(=O)NS4(=O)=O)c3F)O2)C(C)(C)CCC1 [Compound 128] ?
Data returned: > 8.00

Data request: And CCC(C)CNC[C@H]1Cc2c(cc(O)c(N3CC(=O)NS3(=O)=O)c2F)N1 (stereo partly drawn) [Compound 142] ?
Data returned: 7.00 to 8.00

Data request: And O=C1CN(c2c(O)cc3c(c2F)CC(CNCCCC(F)F)N3)S(=O)(=O)N1 (stereo not drawn) [Compound 145] ?
Data returned: 7.00 to 8.00

Data request: And CC(C)CNC[C@H]1Cc2c(cc(O)c(N3CC(=O)NS3(=O)=O)c2F)N1C [Compound 156] ?
Data returned: < 7.00

Parameters: items (list). Returns: pIC50 for each item.
1. CC(C)CNC[C@@H]1Cc2c(cc(O)c(N3CC(=O)NS3(=O)=O)c2F)N1 [Compound 132]
2. CC(C)CNC[C@H]1Cc2c(cc(O)c(N3CC(=O)NS3(=O)=O)c2F)O1 [Compound 100]
3. CCCCNC[C@H]1Cc2c(cc(O)c(N3CC(=O)NS3(=O)=O)c2F)O1 [Compound 111]

Data returned:
1. 7.00 to 8.00
2. > 8.00
3. 7.00 to 8.00

###

TESTED_SYSTEM: His tagged PTPN2 (TC45) protein (Homo sapiens (Human), UniProt P17706)
Sequence (P17706 other isoform, or with tags, fused parts or gaps): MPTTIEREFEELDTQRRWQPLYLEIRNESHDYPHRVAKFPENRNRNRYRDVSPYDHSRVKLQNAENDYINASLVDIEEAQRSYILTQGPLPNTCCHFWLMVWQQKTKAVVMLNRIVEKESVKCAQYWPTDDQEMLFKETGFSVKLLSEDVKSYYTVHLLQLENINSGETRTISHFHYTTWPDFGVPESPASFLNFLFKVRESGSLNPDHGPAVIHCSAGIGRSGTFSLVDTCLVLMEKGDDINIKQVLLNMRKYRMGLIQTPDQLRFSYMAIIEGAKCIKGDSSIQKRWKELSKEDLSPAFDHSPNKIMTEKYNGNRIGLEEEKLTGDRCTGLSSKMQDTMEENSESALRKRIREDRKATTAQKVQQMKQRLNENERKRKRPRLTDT
PROTOCOL_DETAILS: PTPN2 Mobility Shift Assay (MSA)
Assay type: biochemical
PROTOCOL_CONDITIONS: enzyme 0.5 nM, substrate 2 μM
Protocol: Example III-1: Mobility Shift Assay (MSA) Used to Determine Potency of PTPN2 Inhibitors Compound activity was determined using in house His tagged PTPN2 (TC45) protein (SEQ ID NO: 1) in an in vitro enzymatic reaction. The enzymatic assay used to determine activity was a mobility shift assay using a LabChip EZ Reader by Caliper Life Sciences. The enzymatic reaction was carried out in assay buffer (50 mM HEPES pH 7.5, 1 mM EGTA, 10 mM EDTA, 0.01% Tween® 20, and 2 mM DTT). […]
pIC50: −log10 of the molar value.
RESULT_TYPE: pIC50

Parameters: items (list). Returns: pIC50 for each item.
1. O=C1CN(c2c(O)cc3c(c2F)C[C@H](CNCC2C4CCCC42)O3)S(=O)(=O)N1 (mixture of isomers)
2. O=C1CN(c2c(O)cc3c(c2F)C[C@H](CNCC2CCOCC2)N3)S(=O)(=O)N1
3. O=C1CN(c2c(O)cc3c(c2F)C[C@H](CNCC2CCOCC2)O3)S(=O)(=O)N1
4. O=C1CN(c2c(O)cc3c(c2F)C[C@H](CNCCCc2ccccc2)O3)S(=O)(=O)N1
5. O=C1CN(c2c(O)cc3c(c2F)C[C@H](CNCCC2(CO)CCC2)O3)S(=O)(=O)N1
6. CC(C)(C)CCNC[C@H]1Cc2c(cc(O)c(N3CC(=O)NS3(=O)=O)c2F)N1

Data returned:
1: > 8.00; 2: 7.00 to 8.00; 3: 7.00 to 8.00; 4: > 8.00; 5: 7.00 to 8.00; 6: 7.00 to 8.00

Parameters: items (list). Returns: pIC50 for each item.
1. O=C1CN(c2c(O)cc3c(c2F)C[C@H](CNCCCC(F)F)O3)S(=O)(=O)N1
2. O=C1CN(c2c(O)cc3c(c2F)C[C@H](CNCCC2CC2)N3)S(=O)(=O)N1

Data returned:
1: 7.00 to 8.00; 2: 7.00 to 8.00
